target_system: human ether-à-go-go-related gene (hERG) potassium channel (human);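 further: peak tail current of the secondary pulse compared with the same well before compound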
Sequence (Q12809 whole entry, looked up): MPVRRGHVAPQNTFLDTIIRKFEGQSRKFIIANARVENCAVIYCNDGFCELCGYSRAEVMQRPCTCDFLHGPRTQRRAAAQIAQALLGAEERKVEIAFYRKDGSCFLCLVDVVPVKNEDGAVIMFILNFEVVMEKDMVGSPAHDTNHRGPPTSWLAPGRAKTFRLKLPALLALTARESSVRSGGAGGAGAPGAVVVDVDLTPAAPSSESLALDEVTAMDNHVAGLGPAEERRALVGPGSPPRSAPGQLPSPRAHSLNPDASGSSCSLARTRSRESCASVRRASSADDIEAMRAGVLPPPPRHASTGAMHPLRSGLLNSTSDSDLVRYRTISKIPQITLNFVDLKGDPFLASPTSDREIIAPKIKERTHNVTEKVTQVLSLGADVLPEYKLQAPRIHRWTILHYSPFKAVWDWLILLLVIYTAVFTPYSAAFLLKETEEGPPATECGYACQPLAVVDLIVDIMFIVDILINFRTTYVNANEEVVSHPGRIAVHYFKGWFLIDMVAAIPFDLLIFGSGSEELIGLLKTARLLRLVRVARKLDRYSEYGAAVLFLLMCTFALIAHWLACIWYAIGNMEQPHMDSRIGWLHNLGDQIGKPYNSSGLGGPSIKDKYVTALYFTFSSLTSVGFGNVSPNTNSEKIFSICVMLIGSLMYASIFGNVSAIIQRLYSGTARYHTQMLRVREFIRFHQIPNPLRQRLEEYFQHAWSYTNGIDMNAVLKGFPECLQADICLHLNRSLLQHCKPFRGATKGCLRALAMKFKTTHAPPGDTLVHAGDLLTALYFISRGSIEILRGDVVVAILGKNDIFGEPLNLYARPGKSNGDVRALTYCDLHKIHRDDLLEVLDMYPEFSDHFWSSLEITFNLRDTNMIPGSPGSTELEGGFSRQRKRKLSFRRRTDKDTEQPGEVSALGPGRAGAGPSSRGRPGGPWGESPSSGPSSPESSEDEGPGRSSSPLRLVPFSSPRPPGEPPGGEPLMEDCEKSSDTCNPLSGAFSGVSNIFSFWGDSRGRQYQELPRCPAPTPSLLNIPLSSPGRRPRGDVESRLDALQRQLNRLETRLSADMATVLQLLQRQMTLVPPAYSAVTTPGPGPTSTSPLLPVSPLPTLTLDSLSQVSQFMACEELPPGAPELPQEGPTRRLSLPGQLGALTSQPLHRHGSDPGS
measurement_notes: primary screen, population patch clamp on CHO cells stably expressing hERG; higher = less effect of the substance
Among all 310,000 compounds or so, about 14,000 (4.5%) showed an effect of 50% or more. The effect is printed as a negative number. Shown is part of a subset that was picked to be rich in strong results.
observable: hERG current change (%, negative = inhibition) at 10uM (%)

{"molecule": "C/C=C/n1ccnc1CC(O)(c1ccccc1)c1ccc(C)cc1 (stereo not shown)", "target_system": "human ether-à-go-go-related gene (hERG) potassium channel (human)", "reading": -22.5}
{"molecule": "O=C(CN1CCN(Cc2ccccc2F)CC1)Nc1ccccc1Cl", "target_system": "human ether-à-go-go-related gene (hERG) potassium channel (human)", "reading": -27.6}
{"molecule": "Cc1nc(N2CCCCCC2)c2ccccc2n1.Cl", "target_system": "human ether-à-go-go-related gene (hERG) potassium channel (human)", "reading": -51.5}
{"molecule": "O=C(CN1CCCCCC1)Nc1ccc(F)c(F)c1.O=C(O)C(=O)O", "target_system": "human ether-à-go-go-related gene (hERG) potassium channel (human)", "reading": -22.4}
{"molecule": "CCN(CC)S(=O)(=O)c1ccc(NC2CCN(Cc3ccccc3)CC2)nc1", "target_system": "human ether-à-go-go-related gene (hERG) potassium channel (human)", "reading": -57.9}
{"molecule": "Cl.O=C(CN1CCN(Cc2ccccc2)CC1)Nc1ccc2c(c1)CCC2", "target_system": "human ether-à-go-go-related gene (hERG) potassium channel (human)", "reading": -47.6}
{"molecule": "Cc1cc(C)cc(NC(=O)C2CCN(C(=O)[C@@H]3Cc4ccccc4CN3)CC2)c1", "target_system": "human ether-à-go-go-related gene (hERG) potassium channel (human)", "reading": -67.7}
{"molecule": "c1ccc2c(N3CCCCC3)nc(N3CCCC3)nc2c1", "target_system": "human ether-à-go-go-related gene (hERG) potassium channel (human)", "reading": -69.6}
{"molecule": "Cn1cc(CN2CCC(n3nccc3NC(=O)c3ccccc3Cl)CC2)c2ccccc21", "target_system": "human ether-à-go-go-related gene (hERG) potassium channel (human)", "reading": -68.6}
{"molecule": "CCOCCCNC(=O)CN1C(=O)/C(=C/c2ccccc2C)Sc2ccccc21", "target_system": "human ether-à-go-go-related gene (hERG) potassium channel (human)", "reading": -8.45}
{"molecule": "COc1ccc(/C=N/Nc2cc(C)nc3ccc(Br)cc23)cc1", "target_system": "human ether-à-go-go-related gene (hERG) potassium channel (human)", "reading": -35.1}
{"molecule": "Cc1cc(C)cc(NC(=O)C2CCC(CNC(=O)[C@@H]3Cc4ccccc4CN3)CC2)c1 (stereo partly shown)", "target_system": "human ether-à-go-go-related gene (hERG) potassium channel (human)", "reading": 0.322}
{"molecule": "O=C(CN1CCN(Cc2ccccc2)CC1)Nc1ccc(F)c(F)c1.O=C(O)C(=O)O", "target_system": "human ether-à-go-go-related gene (hERG) potassium channel (human)", "reading": -57.1}
